Hey, just so you know, these numbers are from the supplement of paper PMC12339681.

System: PBMC-derived induced microglia-like cells (piMGLC)
Assay: synaptosome phagocytic index relative to DMSO control (fraction of DMSO); higher = more phagocytosis
Conditions: concentration: 10 uM (2 uM for compounds listed in Table S2); pretreatment time: 24 h; assay time: 3 h
# synaptosome phagocytic index listing for each entry below
// return a plain number; no unit text

Answered cases to consult:
NCC(CC(=O)O)c1ccc(Cl)cc1 (stereo not drawn)	0.783
COc1ccc(OC)c(C(=O)N[C@@H]2CN3CCC2CC3)c1	0.646

Entry C1=CC[C@@H](c2cccnc2)NC1 [Anatabine_(dicitrate)] ; synaptosome phagocytic index = 0.984

---

Tested on: PBMC-derived induced microglia-like cells (piMGLC)
Experiment: synaptosome phagocytic index relative to DMSO control (fraction of DMSO); higher = more phagocytosis
Details: concentration: 10 uM (2 uM for compounds listed in Table S2); pretreatment time: 24 h; assay time: 3 h
Structures can show the parent of a compound that is named as a salt.
Measured synaptosome phagocytic index accompanies every entry in the list below.
Form field (numeric): enter value without unit.

Record excerpt, results attached:
CC(C)(NC(=O)O[C@@H]1CN2CCC1CC2)c1csc(-c2ccc(F)cc2)n1	1.05
NCCc1c[nH]c2ccc(O)cc12 [Serotonin_hydrochloride]	0.812
FC(F)(F)c1ccc(N2CCNCC2)nc1Cl	1.17

The compound C/C(=C\c1csc(C)n1)[C@@H]1C[C@@H]2O[C@]2(C)CCC[C@H](C)[C@H](O)[C@@H](C)C(=O)C(C)(C)[C@@H](O)CC(=O)O1 , tested on PBMC-derived induced microglia-like cells (piMGLC), showed synaptosome phagocytic index of 0.842

// synaptosome phagocytic index (PBMC-derived induced microglia-like cells (piMGLC)) for CNC(=O)ON(C(C)=O)C(=O)NC [Caracemide] = 0.78

synaptosome phagocytic index for PBMC-derived induced microglia-like cells (piMGLC) with input COc1ccc(C(CN(C)C)C2(O)CCCCC2)cc1 (centres undefined) [Venlafaxine_(hydrochloride)] equals 1.02
